We begin with a simple list: items and their reported Potency EC50 (nM), ferroportin-GFP internalization/degradation.
Target: T1, human ferroportin (SLC40A1) fused in frame with GFP, stably expressed in HEK293 cells (human, UniProt Q9NP59 1-571)
T1 sequence (looked up): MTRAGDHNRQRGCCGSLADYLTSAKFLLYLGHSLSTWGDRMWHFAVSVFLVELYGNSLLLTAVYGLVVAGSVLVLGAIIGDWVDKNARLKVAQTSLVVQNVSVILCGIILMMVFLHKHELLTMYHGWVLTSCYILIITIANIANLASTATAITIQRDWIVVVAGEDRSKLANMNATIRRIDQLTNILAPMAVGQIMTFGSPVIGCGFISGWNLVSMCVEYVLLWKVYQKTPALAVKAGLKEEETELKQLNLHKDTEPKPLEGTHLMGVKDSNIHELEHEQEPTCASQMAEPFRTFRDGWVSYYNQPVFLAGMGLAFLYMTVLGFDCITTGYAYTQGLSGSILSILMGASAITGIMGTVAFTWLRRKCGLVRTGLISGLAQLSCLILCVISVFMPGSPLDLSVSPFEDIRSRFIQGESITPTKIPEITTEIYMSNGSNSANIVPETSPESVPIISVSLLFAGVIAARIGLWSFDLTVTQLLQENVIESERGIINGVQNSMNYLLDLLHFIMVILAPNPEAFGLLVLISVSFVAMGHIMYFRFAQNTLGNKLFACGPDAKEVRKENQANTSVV
Assay: cell-based or functional assay
Numbered stars: 1 amine (or outer) side, 2 acyl side, 3 side chain; on linkers, the order of the positions; unused ones are H or OH. Bridge positions count the residues as written; N and C are the ends. Square brackets hold non-standard residues; d marks the D form. Ends that are not written are not given here. * marks the point of attachment. Ida = iminodiacetic acid, O=C(CN(CC(=O)[*:3])[*:1])[*:2]; Isovaleryl = CC(C)CC(=O)*; Butyryl = CCCC(=O)*

[[record]]
binder = "DTHFPCIKFKPRSKGWVC (N-terminal isovaleric acid; K(Ac) at Lys 10; C-terminal amide) [Isovaleric acid-DTHFPCIKF-K(Ac)-PRSKGWVC-NH2]"
result_value = "29 nM"

[[record]]
binder = "Isovaleryl-DTHFPCKIFGPRSKGWVCK-NH2 (disulfide 6-18 (inferred)) [Isovaleric acid-DTHFPCKIFGPRSKGWVCK-NH2]"
result_value = "86 nM"

[[record]]
binder = "H-DTHAPCIIF-NH2 [Hy-DTHAPCIIF-NH2]"
result_value = "> 10000 nM"

[[record]]
binder = "[Ida]THFPCIKFEPRSKGWVCK(Butyryl)-NH2 (disulfide 6-18 (inferred)) [[Ida]-THFPCIKFEPRSKGWVC-K(butyric acid)-NH2]"
result_value = "355 nM"

[[record]]
binder = "H-DTHFPCIEF-NH2 [Hy-DTHFPCIEF-NH2]"
result_value = "> 1000 nM"


Okay, next one:
[in] Give reported Potency EC50 (nM), ferroportin-GFP internalization/degradation value for Isovaleryl-DTHFPCIKKEPHSKECK-NH2 (disulfide 6-16 (inferred)) [Isovaleric acid-DTHFPCIKKEPHSKECK-NH2]
[out] > 1000 nM
